Known polymerase ribozyme fitness (log ratio) of a selection of variants
B1: TPR t1 (parent)
chain: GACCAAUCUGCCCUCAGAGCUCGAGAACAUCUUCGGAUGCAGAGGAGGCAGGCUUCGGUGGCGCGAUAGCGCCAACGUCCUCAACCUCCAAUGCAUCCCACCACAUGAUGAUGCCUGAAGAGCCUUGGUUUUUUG

variants of: B1; experiment: polymerase ribozyme fitness, log enrichment relative to wild type (log ratio); higher = more active; in vitro selection for triplet polymerase activity

RESIDUE SEQUENCE	polymerase ribozyme fitness (log ratio)
GACCAAUCUGCCCUCAGAGCUCGAGAACAUCUUCGGAUGCAGAGGAGGCAGGCUUCGGUGGCUCGAUAGCGCUAACGUCCUCAACCUCCAAUGCAUCCCACCACAUGAUGAUGCCUGAAGAGCCUUGGUUUUUUG [G63U C73U]	-2.45
GACCAAUCUGCCCUCAGAGCUCGAGAACAUCUUCGGAUGCAGAGGAGGCAGGCUUCGGUGGCGGGAUAGCGCCAACGUCCUCAACCUCCAAUGCAUCCCACCACAUGAUGAGGCCUGAAGAGCCUUGGUUUUUUG [C64G U112G]	-6.14

Shifting focus to the variant that follows.
Which polymerase ribozyme fitness (log ratio) reading was recorded for the variant GACCAAUCUGCCCUCCGAGCUCGAGAACAUCUUCGGAUGCAGAGGAGGCAGGCUUCGGUGGCGCGAUAGCCCCAACGUCCUCAACCUCCAAUGCAUCCCACCACAUGAUGAUGCCUGAAGAGCCUCGGUUAUUUG [A16C G71C U126C U131A] ?
-4.45
